# target: Alexa Fluor 488 calmodulin (UniProt P62157 1-149)
# procedure.details: other fluorescence titration
metric.name: pKd
Give bare numbers, as −log10 of the molar value.

Field pKd (entry CKRKWAVDVVRRFIKGFIYRNQPR [bullfrog Myo1c IQ3 peptide] ) reads 5.70
